- TESTED_ON: recombinant human CK2 (RRββ-holoenzyme) (Homo sapiens, UniProt P68400)
- Sequence (P68400 whole entry): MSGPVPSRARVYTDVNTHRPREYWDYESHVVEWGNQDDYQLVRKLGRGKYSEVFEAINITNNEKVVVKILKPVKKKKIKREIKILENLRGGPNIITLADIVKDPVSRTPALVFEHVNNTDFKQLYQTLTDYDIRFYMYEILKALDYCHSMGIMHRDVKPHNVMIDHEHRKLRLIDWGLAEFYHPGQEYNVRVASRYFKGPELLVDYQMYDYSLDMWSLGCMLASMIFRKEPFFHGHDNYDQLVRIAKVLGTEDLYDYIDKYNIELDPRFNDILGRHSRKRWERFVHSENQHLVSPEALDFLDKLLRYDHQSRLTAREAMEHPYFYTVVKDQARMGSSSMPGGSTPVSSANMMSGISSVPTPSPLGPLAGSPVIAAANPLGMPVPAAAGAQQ
- Sequence (P67870 whole entry partner): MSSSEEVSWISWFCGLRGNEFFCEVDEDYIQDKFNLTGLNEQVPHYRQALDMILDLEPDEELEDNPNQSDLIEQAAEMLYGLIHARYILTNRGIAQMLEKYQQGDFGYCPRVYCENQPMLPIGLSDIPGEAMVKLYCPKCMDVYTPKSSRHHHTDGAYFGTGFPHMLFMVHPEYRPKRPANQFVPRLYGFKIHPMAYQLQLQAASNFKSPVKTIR
- ASSAY_TEXT: CK2 kinase assay (33P-ATP, substrate peptide RRRDDDSDDD)
- REPORTED_CONDITIONS: final ATP concentration 15 μM, 10 min at 30° C.; read-out: protein kinase CK2 IC50
METRIC_NAME: pIC50
pIC50 field: float, defined as -log10 of concentration (mol/L).

Looking for the measured pIC50 of O=c1[nH]ccc2c1[nH]c1c3ccncc3c(Nc3cccc(Cl)c3)nc21 [Compound 1] , can you help? 7.42

* * *

- Test system: MCF7 (breast)
- ASSAY_TEXT: In vitro cytotoxic activity (MTT) assay, MCF7
- Type: cell-based
- REPORTED_CONDITIONS: Homo sapiens; MCF7 (breast) cells, exposed for 96 hours; read-out: IC50, concentration eliciting 50% inhibition of cell proliferation
METRIC_NAME: IC50 (µM)
Value expressed in µM; do not type the unit.

Looking for the measured IC50 of O=c1[nH]ccc2c1[nH]c1c3ccncc3c(Nc3cccc(Cl)c3)nc21 [Compound 1] , can you help? 6.2
